experiment: amyloid nucleation score (Sup35N fusion, yeast selection) (log enrichment); library NNK1; higher = more nucleation; inactive = no reads after selection;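 also: zero at mode of non-aggregating sequences after 7 days selection at 30°C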
Threshold check on amyloid nucleation score: at or above 0.09 gives 1 (yes), strictly below gives 0 (no).

Incoming: Does the reported amyloid nucleation score for RCSLPLWFQYYGAMTVHGTV fall at or above the 0.09 mark?
Outgoing: 1 (yes)

Incoming: Does the reported amyloid nucleation score for LVIYVVSDDSVGLTNWRIVA fall at or above the 0.09 mark?
Outgoing: 1 (yes)

Incoming: Does the reported amyloid nucleation score for ISWVPDAVNFFACMHW fall at or above the 0.09 mark?
Outgoing: 1 (yes)

Incoming: Does the reported amyloid nucleation score for TFMNRLPMNLDLLIGLTCNL fall at or above the 0.09 mark?
Outgoing: 1 (yes)

Incoming: Does the reported amyloid nucleation score for DMTNAVCTRLNFIRLSTLMK fall at or above the 0.09 mark?
Outgoing: 0 (no)

Incoming: Does the reported amyloid nucleation score for SDYILCIPWPSGLS fall at or above the 0.09 mark?
Outgoing: 1 (yes)

Incoming: Does the reported amyloid nucleation score for HYYANSGVCSTSVNLFRLGS fall at or above the 0.09 mark?
Outgoing: 1 (yes)

Incoming: Does the reported amyloid nucleation score for VPYQCDKTKHFVRKVLILGA fall at or above the 0.09 mark?
Outgoing: 1 (yes)

Incoming: Does the reported amyloid nucleation score for INMLTWGWELILSGSSVYED fall at or above the 0.09 mark?
Outgoing: 0 (no)

Incoming: Does the reported amyloid nucleation score for WIWYFLGRGGYVACRSTKVW fall at or above the 0.09 mark?
Outgoing: 0 (no)

Incoming: Does the reported amyloid nucleation score for NEIYKTA fall at or above the 0.09 mark?
Outgoing: 0 (no)

Incoming: Does the reported amyloid nucleation score for IAGFEVARPSNSKTFFPSKF fall at or above the 0.09 mark?
Outgoing: 1 (yes)

###

test: amyloid nucleation score (Sup35N fusion, yeast selection) (log enrichment); library NNK1; higher = more nucleation; inactive = no reads after selection
Observed property: amyloid nucleation score
# print the numeric value only

Incoming: In one line, give reported amyloid nucleation score of the entry EIVACSWKKELIRAW .
Outgoing: -0.209

Incoming: In one line, give reported amyloid nucleation score of the entry THLVTCKGGLSMPDLVYRHV .
Outgoing: 0.183

Incoming: In one line, give reported amyloid nucleation score of the entry GLRTLEPYRYVIIMVPGQVA .
Outgoing: -0.164

Incoming: In one line, give reported amyloid nucleation score of the entry IDRSLETTTVRGLVVRCYNG .
Outgoing: 0.369

Incoming: In one line, give reported amyloid nucleation score of the entry LLHGGY .
Outgoing: -1.86

Incoming: In one line, give reported amyloid nucleation score of the entry TYSGYFVLAIISPRLDRLFT .
Outgoing: -1.1

Incoming: In one line, give reported amyloid nucleation score of the entry YSILMVNWMFWCFVEAWNHD .
Outgoing: 0.623

Incoming: In one line, give reported amyloid nucleation score of the entry NGADTSSQAF .
Outgoing: -0.182

Incoming: In one line, give reported amyloid nucleation score of the entry IALASCVCLSACWTLDVNSM .
Outgoing: 0.989

Incoming: In one line, give reported amyloid nucleation score of the entry EFVLGGASRVELY .
Outgoing: -0.624

Incoming: In one line, give reported amyloid nucleation score of the entry YSLIVTRCC .
Outgoing: -0.468

Incoming: In one line, give reported amyloid nucleation score of the entry NSIVVTT .
Outgoing: 0.114

Incoming: In one line, give reported amyloid nucleation score of the entry NVGSLVHAAW .
Outgoing: -0.613

Incoming: In one line, give reported amyloid nucleation score of the entry IFCYMNYGS .
Outgoing: 0.554

Incoming: In one line, give reported amyloid nucleation score of the entry LRVYGGFLSMSCMRQRDGTV .
Outgoing: 0.151

Incoming: In one line, give reported amyloid nucleation score of the entry CYLPWDSKNGVEDLYWYEFK .
Outgoing: 1.79

Incoming: In one line, give reported amyloid nucleation score of the entry MSYCFF .
Outgoing: 0.022

Incoming: In one line, give reported amyloid nucleation score of the entry CFEVHTHSESLL .
Outgoing: -0.662

Incoming: In one line, give reported amyloid nucleation score of the entry CVRNGLGCYSCTRTFFTVIV .
Outgoing: -0.409

Incoming: In one line, give reported amyloid nucleation score of the entry ELGPRPHTFLEFAGICVGGM .
Outgoing: -0.422

Incoming: In one line, give reported amyloid nucleation score of the entry IENGLYMSLYLGNQRI .
Outgoing: 1.47

Incoming: In one line, give reported amyloid nucleation score of the entry HLWLFAGYMLLLKPKLKVCT .
Outgoing: -0.625

Incoming: In one line, give reported amyloid nucleation score of the entry GSFYSGI .
Outgoing: 1.6

Incoming: In one line, give reported amyloid nucleation score of the entry WTFGLGSGVSGVSLERGPLG .
Outgoing: -0.622

Incoming: In one line, give reported amyloid nucleation score of the entry NVCLLGRLRFYVVLTGIRDL .
Outgoing: -0.34

Incoming: In one line, give reported amyloid nucleation score of the entry YFEFSIHSQRYIQWSHYLVL .
Outgoing: -1.05

Incoming: In one line, give reported amyloid nucleation score of the entry CDTFYLLVLALTYWEWANLE .
Outgoing: -0.497

Incoming: In one line, give reported amyloid nucleation score of the entry IGMLGLCGRIPMQAEGGSFR .
Outgoing: 0.712

Incoming: In one line, give reported amyloid nucleation score of the entry RLYFYGFRDSLWQFNLSEEH .
Outgoing: 7.62

###

Would you mind telling me the reported amyloid nucleation score of each entry?
assay: amyloid nucleation score (Sup35N fusion, yeast selection) (log enrichment); library NNK2; higher = more nucleation; inactive = no reads after selection
# print the numeric value only

Incoming: In one line, give reported amyloid nucleation score of the entry SHTVGFSRAVRVCRGTDHT .
Outgoing: 0.72

Incoming: In one line, give reported amyloid nucleation score of the entry LMCNKESSNPICGLWVCFWA .
Outgoing: 9.49

Incoming: In one line, give reported amyloid nucleation score of the entry VIMVTSPQFKKPKLYMDKRD .
Outgoing: -1.03

Incoming: In one line, give reported amyloid nucleation score of the entry KCVVKELYWLWFHLSSVNLY .
Outgoing: -1.23

Incoming: In one line, give reported amyloid nucleation score of the entry DQCELVSGVWLSIRSADLPY .
Outgoing: 0.176

Incoming: In one line, give reported amyloid nucleation score of the entry YIMSFRY .
Outgoing: -0.592

Incoming: In one line, give reported amyloid nucleation score of the entry RNHVAHH .
Outgoing: 2.17

Incoming: In one line, give reported amyloid nucleation score of the entry VENLRNTIPKKEIGFSSVTG .
Outgoing: -0.105

Incoming: In one line, give reported amyloid nucleation score of the entry NYTGQTFVMTGLISFNPQIG .
Outgoing: 5.79

Incoming: In one line, give reported amyloid nucleation score of the entry SEPKEVCLVIGGEEYKGVVS .
Outgoing: 0.364

Incoming: In one line, give reported amyloid nucleation score of the entry VCDFNVLDGCGNPGLL .
Outgoing: -0.67

Incoming: In one line, give reported amyloid nucleation score of the entry DCTLAVLFYKTEFITPRAQW .
Outgoing: 2.28

Incoming: In one line, give reported amyloid nucleation score of the entry VCFLQFYLSIFTTHTVSTYK .
Outgoing: -0.547

###

assay: amyloid nucleation score (Sup35N fusion, yeast selection) (log enrichment); library NNK3; higher = more nucleation; inactive = no reads after selection
Observed property: amyloid nucleation score

Illustrative cases are given below, each with its answer.
- VFFMNYGHVIVHFEKFFGGN: 2.6
- LASLTRLLDFMMSVENTYSA: inactive
- RMKFGADIAVVHVCPMEFSG: inactive
- IVRDFLAGPIKHSTFEVIDF: inactive
- QVGSRRNSS: inactive
- CWDFKGFMMESLTNRSPYAS: inactive
- SMCDMYYLVACTPHMIVQLY: -0.111
- GWMYTCRDAHYLDGWRLVHD: inactive

Next item in the queue.
Incoming: In one line, give reported amyloid nucleation score of the entry AFSKRSSWNNHFICVNDVVQ .
Outgoing: inactive

###

assay: amyloid nucleation score (Sup35N fusion, yeast selection) (log enrichment); library NNK2; higher = more nucleation; inactive = no reads after selection
Observed property: amyloid nucleation score

Illustrative cases are given below, each with its answer.
* FFNLNYMGFHSDIGSLIYPC | inactive
* IYREVYAL | inactive
* VQFRAHSCLLA | 0.841
* VEFSLSCHNMIFYVLD | 6.76
* PRWRDRVVNMKSDLDGV | 5.51
* KCHCRAMS | inactive

Incoming: In one line, give reported amyloid nucleation score of the entry TSVYFHFGFPPWVGVPRRLT .
Outgoing: 3.17

Incoming: In one line, give reported amyloid nucleation score of the entry LGWRVGWYASDAFYKPEWFD .
Outgoing: -0.53

###

assay: amyloid nucleation score (Sup35N fusion, yeast selection) (log enrichment); library NNK2; higher = more nucleation; inactive = no reads after selection
Observed property: amyloid nucleation score
# print the numeric value only

Incoming: In one line, give reported amyloid nucleation score of the entry MTCSSHCGMCIPSIPQVFGA .
Outgoing: 1.02

Incoming: In one line, give reported amyloid nucleation score of the entry MRWSYFDH .
Outgoing: 0.921

Incoming: In one line, give reported amyloid nucleation score of the entry VRMSSRRS .
Outgoing: 1.24

Incoming: In one line, give reported amyloid nucleation score of the entry LNDGPEGTCWSPNGVNSLLH .
Outgoing: -0.382
